target: Inadl_9, Q8NI35; test: holdup assay; parameters: key: below the threshold = too weak to quantify, mostly under pKd 3.1 to 4; conditions: plain residues with an end cap or a label only (N-terminal biotin on a linker: ttds)
Sequence (Q8NI35 1530-1615): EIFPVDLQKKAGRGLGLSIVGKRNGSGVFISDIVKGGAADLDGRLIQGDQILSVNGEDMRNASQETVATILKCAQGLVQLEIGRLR
readout.kind: pKd

Worked set:
| binder | assay.result |
| --- | --- |
| ERKLSSESQV [LRP4, O75096] | below the threshold |
| SSRTRRETQL [HPV16-E6, P03126] | below the threshold |
| IYVPEAQTRL [DLGAP4, Q9Y2H0] | below the threshold |
| IDNDTESTAL [ARHGAP17, Q68EM7] | below the threshold |
| QSARYRDTEL [TJP2, Q9UDY2] | below the threshold |

INPUT: For the binder GQDSREETQL [KCNT2, Q6UVM3] , give its reported pKd.
OUTPUT: below the threshold

INPUT: For the binder SVWLRKETRV [CYSLTR2, Q9NS75] , give its reported pKd.
OUTPUT: 3.39

INPUT: For the binder PKTPPTDTSV [KIR3DL3, Q8N743] , give its reported pKd.
OUTPUT: below the threshold

INPUT: For the binder RSLEEEESQL [GRASP, Q7Z6J2] , give its reported pKd.
OUTPUT: below the threshold

INPUT: For the binder SRPQRTQTQV [HPV67-E6, A4U7F2] , give its reported pKd.
OUTPUT: below the threshold
